biological target: SARS-CoV-2 Main Protease (SARS-CoV-2)
assay.metric: log10(IC50) (log10 of the value in µM)

molecule: CCCCc1nc(-c2nccn2CC(F)(F)F)c[nH]1
log10(IC50): 1.36

molecule: Cn1ncc(C(=O)N(c2ccc(C(C)(C)C)cc2)C(C(=O)NCCc2cccc(F)c2)c2cccnc2)n1 (stereo not given)
log10(IC50): 1.25

molecule: O=C(CCl)N1CCCN(S(=O)(=O)c2ccc(F)cc2)CC1
log10(IC50): 1.64

molecule: N#Cc1cccc(CN2CCN(C(=O)CCl)CC2)c1
log10(IC50): 1.29

molecule: N#CC1(CS(=O)(=O)N2Cc3ccc(Cl)cc3C3(CCN(c4cncc5cccc(Cl)c45)C3=O)C2)CC1 (stereo not given)
log10(IC50): 0.89

molecule: O=C(CN1CC(C(=O)Nc2cncc3cc(F)ccc23)c2cc(Cl)ccc2C1=O)NC1CCC1 (stereo not given)
log10(IC50): -0.47

molecule: O=C(c1cc(=O)[nH]c2ccccc12)N1CCN(c2ccccc2F)CC1
log10(IC50): 1.38

---

conditions: human; plasma

molecule: O=C(Nc1cncc2ccccc12)C1CN(S(=O)(=O)CC2CNC2)Cc2ccc(Cl)cc21 (stereo unspecified)
fraction unbound: 0.295

---

molecular target: SARS-CoV-2 Main Protease (SARS-CoV-2)
pIC50: −log10 of the molar value.
assay.metric: pIC50

compound: COc1ccccc1OCCNC(=O)c1cc(=O)ccn1C
result.comparator: <
value.measured: 4.00

compound: CC(C)(C)c1ccc(N(C(=O)c2cocn2)C(C(=O)NC2COC2)c2cccnc2)cc1 (stereo not given)
result.comparator: =
value.measured: 5.39

compound: CC(=O)N(CC(=O)Nc1ccc(F)c(Cl)c1)c1cccc(Cl)c1
result.comparator: <
value.measured: 4.00

compound: CCN(C(=O)c1ccco1)C(C(=O)NCCc1cccc(F)c1)c1cccnc1 (stereo not given)
result.comparator: <
value.measured: 4.00

compound: O=C(Nc1cncc2c1CCCC2)C1CNS(=O)(=O)c2ccc(Cl)cc21 (stereo not given)
result.comparator: =
value.measured: 6.34

compound: Cc1ccncc1NC(=O)Cc1cc(Cl)cc(OCc2nnc(C3CCCCC3)o2)c1
result.comparator: =
value.measured: 4.69

compound: CC(C)Sc1ccccc1Nc1cc(Cl)cc(CC(=O)Nc2cncc3ccccc23)c1
result.comparator: =
value.measured: 5.70

compound: Clc1ccc2c(c1)C1(CCO2)CCN(c2cncc3cccc(Cl)c23)C1 (stereo not given)
result.comparator: <
value.measured: 4.00

compound: O=C(Cc1cc(Cl)cc(Nc2c(F)cc(F)cc2Cl)c1)Nc1cncc2ccccc12
result.comparator: =
value.measured: 5.69

compound: O=C(Cc1cc(Cl)cc(Nc2ccc([N+](=O)[O-])cc2Cl)c1)Nc1cncc2ccccc12
result.comparator: =
value.measured: 5.66

---

target: SARS-CoV-2 Main Protease (SARS-CoV-2) (UniProt P0DTD1)
assay.metric: log10 IC50 (log10 of the value in µM)

compound: Cn1cncc1CN(C(=O)CC1(C(=O)Nc2cncc3ccccc23)CCOc2ccc(Cl)cc21)C1CC1 (centres undefined)
log10 IC50: 0.79
--
compound: Cc1nc(Br)ccc1Nc1cc(Cl)cc(CC(=O)Nc2cncc3ccccc23)c1
log10 IC50: 0.45
--
compound: CCN(CC)S(=O)(=O)c1ccc(Nc2cc(Cl)cc(CC(=O)Nc3cncc4ccccc34)c2)cc1
log10 IC50: 0.33
--
compound: C[C@@H]1NC(=O)c2ccc(Cl)cc2[C@@H]1C(=O)Nc1cncc2ccccc12 (stereo in doubt)
log10 IC50: -0.34
--
compound: C=CC(=O)N(c1ccc(C(C)(C)C)cc1)C(C(=O)NCCOC)c1cccnc1 (centres undefined)
log10 IC50: 1.75
--
compound: O=C(NCc1ccc(Cl)cc1CN1CCN(C(=O)CCl)CC1)[C@@H]1CCCOC1 (stereo in doubt)
log10 IC50: 1.08
--
compound: CC(C)(C)c1ccc(N(C(=O)c2ccno2)C(C(=O)NCCc2cccc(F)c2)c2cccnc2)cc1 (centres undefined)
log10 IC50: 0.05

---

target: SARS-CoV-2 Main Protease (SARS-CoV-2)
pIC50: −log10 of the molar value.
Answer 0 if pIC50 is under 5, and 1 if it is 5 or more.

compound: CC(C)=CCC/C(C)=C/CC/C(C)=C/CC/C(C)=C/Cc1cc(O)cc2c1OC(=O)C2=C(C)C
target.desc: SARS-CoV-2 Main Protease (SARS-CoV-2)
group.label: 0

compound: Cc1nccn1Cc1ccc2c(NC(=O)C3CCOc4ccc(Cl)cc43)cncc2c1 (stereo not drawn)
target.desc: SARS-CoV-2 Main Protease (SARS-CoV-2)
group.label: 1

compound: COc1cc(C)ccc1N(C(=O)c1ccco1)C(C(=O)NCCc1cccc(F)c1)c1cccnc1 (stereo not drawn)
target.desc: SARS-CoV-2 Main Protease (SARS-CoV-2)
group.label: 0

compound: O=C(NNc1cc(O)nc2ncccc12)c1ccc2[nH]ccc2c1
target.desc: SARS-CoV-2 Main Protease (SARS-CoV-2)
group.label: 0

compound: CC(C)(C)c1ccc(N(C(=O)c2cocn2)C(C(=O)NCCc2cccc(F)c2)c2cccnc2)cc1 (stereo not drawn)
target.desc: SARS-CoV-2 Main Protease (SARS-CoV-2)
group.label: 1

compound: O=C(Cc1cccc(C(F)(F)F)c1)Nc1cncc2ccccc12
target.desc: SARS-CoV-2 Main Protease (SARS-CoV-2)
group.label: 1

compound: Cc1ccc(Cl)cc1N1CCN(c2cc(Cl)cc(CC(=O)Nc3cncc4ccccc34)c2)CC1
target.desc: SARS-CoV-2 Main Protease (SARS-CoV-2)
group.label: 1

compound: O=C(Nc1cncc2ccccc12)C1CN(S(=O)(=O)CC2CC2)Cc2ccc(Cl)cc21 (stereo not drawn)
target.desc: SARS-CoV-2 Main Protease (SARS-CoV-2)
group.label: 1

compound: NC(=O)c1ccc(Cl)c(Nc2cc(Cl)cc(CC(=O)Nc3cncc4ccccc34)c2)c1
target.desc: SARS-CoV-2 Main Protease (SARS-CoV-2)
group.label: 1

compound: Cc1ccncc1NC(=O)CN1C(=O)COc2ccc(Cl)cc21
target.desc: SARS-CoV-2 Main Protease (SARS-CoV-2)
group.label: 0

compound: O=C(Cc1cccc(Cl)c1)Nc1c[nH]c(=O)c2ccccc12
target.desc: SARS-CoV-2 Main Protease (SARS-CoV-2)
group.label: 0

compound: COc1ccc(N(C(C)=O)c2cc(Cl)cc(CC(=O)Nc3cncc4ccccc34)c2)cc1N
target.desc: SARS-CoV-2 Main Protease (SARS-CoV-2)
group.label: 1

compound: O=C(CCl)N1CCCN(S(=O)(=O)c2cccc(F)c2)CC1
target.desc: SARS-CoV-2 Main Protease (SARS-CoV-2)
group.label: 0

compound: O=C(NCCc1cccc(F)c1)C(c1cccnc1)N(C(=O)c1cocn1)C1COc2cc(F)ccc21 (stereo not drawn)
target.desc: SARS-CoV-2 Main Protease (SARS-CoV-2)
group.label: 0

compound: CC(C)(C)c1cnc(N(C(=O)c2ccco2)C(C(=O)NCCc2cccc(F)c2)c2cccnc2)s1 (stereo not drawn)
target.desc: SARS-CoV-2 Main Protease (SARS-CoV-2)
group.label: 1

compound: CNc1cncc(NC(=O)C2CCOc3ccc(Cl)cc32)c1C (stereo not drawn)
target.desc: SARS-CoV-2 Main Protease (SARS-CoV-2)
group.label: 0

compound: O=C(CN(C(=O)Cc1cccnc1)c1ccc(-c2ncccn2)cc1)N1CCNCC1
target.desc: SARS-CoV-2 Main Protease (SARS-CoV-2)
group.label: 0

compound: CC(C)(C)c1ccc(N(C(=O)c2cocn2)C(C(=O)NCc2cccnc2)c2cccnc2)cc1 (stereo not drawn)
target.desc: SARS-CoV-2 Main Protease (SARS-CoV-2)
group.label: 0

compound: COc1ccccc1N1CCN(C(=O)c2cc(=O)[nH]c3ccccc23)CC1
target.desc: SARS-CoV-2 Main Protease (SARS-CoV-2)
group.label: 0

compound: O=C(C[C@@]1(C(=O)Nc2cncc3ccccc23)CCOc2ccc(Cl)cc21)N1CCN(C2CCOC2)CC1 (stereo in doubt)
target.desc: SARS-CoV-2 Main Protease (SARS-CoV-2)
group.label: 0

compound: C=CC(=O)N(c1ccc(C(C)(C)C)cc1)[C@H](C(=O)NCCc1cccc(F)c1)c1cccnc1 (stereo in doubt)
target.desc: SARS-CoV-2 Main Protease (SARS-CoV-2)
group.label: 1

compound: O=C(Cc1cc(Cl)cc(Cc2ccn[nH]2)c1)Nc1cncc2ccccc12
target.desc: SARS-CoV-2 Main Protease (SARS-CoV-2)
group.label: 1

compound: COc1cc(Nc2cc(Cl)cc(CC(=O)Nc3cncc4ccccc34)c2)nc(OC)n1
target.desc: SARS-CoV-2 Main Protease (SARS-CoV-2)
group.label: 1

compound: O=C(Cc1cc(Cl)cc(N2CCC(C(F)(F)F)CC2)c1)Nc1cncc2ccccc12
target.desc: SARS-CoV-2 Main Protease (SARS-CoV-2)
group.label: 1

compound: CCOc1ccc(N(C(=O)c2cocn2)C(C(=O)NCCc2cccc(F)c2)c2cccnc2)cn1 (stereo not drawn)
target.desc: SARS-CoV-2 Main Protease (SARS-CoV-2)
group.label: 0

compound: Cc1ccc(S(=O)(=O)NCCNC(=O)N2CCN(S(=O)(=O)N3CCCC3)CC2)cc1
target.desc: SARS-CoV-2 Main Protease (SARS-CoV-2)
group.label: 0

compound: CN(c1cc(Cl)cc(CC(=O)Nc2cncc3ccccc23)c1)C(c1ccccc1)c1ccccc1
target.desc: SARS-CoV-2 Main Protease (SARS-CoV-2)
group.label: 1

compound: N#CC1(CS(=O)(=O)NCc2ccc(Cl)cc2CC(=O)Nc2cncc3ccccc23)CC1
target.desc: SARS-CoV-2 Main Protease (SARS-CoV-2)
group.label: 1

compound: CC(C)NS(=O)(=O)N1Cc2ccc(Cl)cc2C(C(=O)Nc2cncc3ccccc23)C1 (stereo not drawn)
target.desc: SARS-CoV-2 Main Protease (SARS-CoV-2)
group.label: 1

compound: CNC(=O)CN1CC(C(=O)Nc2cncc3cccc(C)c23)c2cc(Cl)ccc2C1=O (stereo not drawn)
target.desc: SARS-CoV-2 Main Protease (SARS-CoV-2)
group.label: 1

compound: O=C(Cc1cc(Cl)cc(NCc2ccc(-c3ccccc3)cc2)c1)Nc1cncc2ccccc12
target.desc: SARS-CoV-2 Main Protease (SARS-CoV-2)
group.label: 1

compound: O=C(Cc1ccc(Cl)c(F)c1)Nc1cncc2ccccc12
target.desc: SARS-CoV-2 Main Protease (SARS-CoV-2)
group.label: 1

compound: Cc1cc(N)ncc1NC(=O)C1CCOc2ccc(Cl)cc21 (stereo not drawn)
target.desc: SARS-CoV-2 Main Protease (SARS-CoV-2)
group.label: 0

compound: C[C@@]1(C(=O)Nc2cncc3c2CCCC3)CNS(=O)(=O)c2ccc(Cl)cc21 (stereo in doubt)
target.desc: SARS-CoV-2 Main Protease (SARS-CoV-2)
group.label: 1

compound: O=C(Nc1ccc2c(=O)cc[nH]c2c1)c1ccc2ccncc2c1
target.desc: SARS-CoV-2 Main Protease (SARS-CoV-2)
group.label: 0

compound: CC1(C(=O)Nc2cncc3cc(S(C)(=O)=O)ccc23)CN(CC2CC2)S(=O)(=O)c2ccc(Cl)cc21 (stereo not drawn)
target.desc: SARS-CoV-2 Main Protease (SARS-CoV-2)
group.label: 1
